Below is a list of entries, each paired with its recorded TGI value.
# System: UACC-62 melanoma
# Method description: NCI tumour cell line growth inhibition, 48 h
Measured property: TGI (µM)

{"Compound": "COc1cc(/C=C\\c2ccc(Cl)cc2)cc(OC)c1OC", "Study target": "UACC-62 melanoma", "Value modifier": ">", "Numeric readout": 100}
{"Compound": "COC1C(OC(N)=O)C(O)C(Oc2ccc3c(O)c(NC(=O)c4ccc(O)c(CC=C(C)C)c4)c(=O)oc3c2C)OC1(C)C (stereo unspecified)", "Study target": "UACC-62 melanoma", "Value modifier": ">", "Numeric readout": 100}
{"Compound": "O=[N+]([O-])c1ccc2[nH]c(O)c(N=NC(=S)Nc3ccccc3)c2c1", "Study target": "UACC-62 melanoma", "Value modifier": "=", "Numeric readout": 29}
{"Compound": "CCSC(=O)C1(C)OC2CCCCC2C1=O (stereo unspecified)", "Study target": "UACC-62 melanoma", "Value modifier": ">", "Numeric readout": 100}
{"Compound": "O=C(NN1C(=O)CSC12CCC(c1ccccc1)CC2)c1[nH]c2ccc(F)cc2c1-c1ccccc1 (stereo unspecified)", "Study target": "UACC-62 melanoma", "Value modifier": "=", "Numeric readout": 23.8}
{"Compound": "CN1CCCC(C(=O)OCC(=O)C2(O)CCC3C4CCC5=CC(=O)CCC5(C)C4C(O)CC32C)C1 (stereo unspecified)", "Study target": "UACC-62 melanoma", "Value modifier": "=", "Numeric readout": 37.7}
